# System: Streptococcus sp.
# measurement-protocol: in vitro antibacterial evaluation, MIC by broth dilution
# Type: cell-based
# condition-info: Streptococcus pneumoniae (ATCC 6301); broth dilution, 18 hours at 35° C.
endpoint-label: MIC Streptococcus pneumoniae (ATCC 6301) (µg/mL)
Write the number in µg/mL without appending the unit.

Request the reported MIC Streptococcus pneumoniae (ATCC 6301) associated with COC1CCC2(C)C(CCC3C2CCC2(C)C(C(C)CCC4OCC5OC(OC6C(CO)OC(Oc7ccc(CC8NC(=O)C(C(C)c9ccccc9)NC(=O)CNC(=O)C(CO)NC(=O)C(C(O)C9CNC(=N)N9C9OC(CO)C(O)C(O)C9O)NC(=O)C(C(O)C9CNC(=N)N9)NC8=O)cc7)C(O)C6O)C(O)C(O)C5O4)CCC32)C1 (stereo not shown)
8

Request the reported MIC Streptococcus pneumoniae (ATCC 6301) associated with CC(c1ccccc1)C1NC(=O)CNC(=O)C(CO)NC(=O)C(C(O)C2CNC(=N)N2C2OC(CO)C(O)C(O)C2O)NC(=O)C(C(O)C2CNC(=N)N2)NC(=O)C(Cc2ccc(OC3OC(CO)C(OC4OC5COC(c6ccc(S(C)(=O)=O)cc6)OC5C(O)C4O)C(O)C3O)cc2)NC1=O (stereo not shown)
4
